Target: T1, PUF4 RNA-binding domain (Saccharomyces cerevisiae, UniProt P25339 537-888)
T1 sequence: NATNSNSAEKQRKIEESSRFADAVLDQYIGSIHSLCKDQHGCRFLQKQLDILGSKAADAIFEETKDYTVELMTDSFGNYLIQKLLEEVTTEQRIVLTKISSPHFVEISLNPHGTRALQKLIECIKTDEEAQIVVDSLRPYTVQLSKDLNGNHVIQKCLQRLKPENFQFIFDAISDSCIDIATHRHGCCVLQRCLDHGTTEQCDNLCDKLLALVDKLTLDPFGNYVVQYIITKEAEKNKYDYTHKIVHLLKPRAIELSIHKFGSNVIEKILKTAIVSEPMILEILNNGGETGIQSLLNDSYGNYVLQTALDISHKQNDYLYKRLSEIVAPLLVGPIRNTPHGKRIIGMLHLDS
Assay: Mg; RNA-MaP; 20 mM Na-HEPES pH 7.4, 30 mM KOAc, 0.75 mM MgCl2, 0.1% Tween-20, 5% glycerol, 0.1 mg/mL BSA, 2 mM DTT; 25 C; 0.0125-409.6 nM protein
Settings: tags: N-His6-TEV cleaved; C-SNAP kept, Cy3B-labelled; label: tethered on chip by stalled RNA polymerase
Kindly supply the reported pKd values for the records listed here.
# reply with the number alone; pKd is -log10 of concentration in mol/L

Entry UCUCUUUCUUGUAUAUAUCUCUCUU (ssRNA) [Id_iii_S1_P3E.5_K3.1_C3.3_H3.1_A3.1_F3.1_T3.2_[A10C]] has what pKd?
8.22

# get_value(readout='pKd', item= UCUCUUCCUGUAUAUACCUCUCUU (ssRNA) [Id_ii_S1_P3E.2_K3.1_C3.2_[T-1C]_H3.1_A3.1_F3.1_T3.2_[T9C]_[A10C]] )
7.61

Need pKd of UCUCUUUUUAUAUUAUUACGUCUCUU (ssRNA) [Id_ii_S1_P5E.3_K5.2_C5.2_[C-2T]_H5.2_A5.1_F5.1_T5.2_[T11C]_[A12G]] , thanks.
6.36

For Id_ii_S2_P5E.3_K5.2_C5.2_[C-2T]_[T-1G]_H5.2_A5.1_F5.1_T5.2_[A12C] (ssRNA) RNA: UUUGAUUAAUAUGAUAUCGUUCUUUCUUGUAUAUUAUUAUCUUCUUUCUCGAUAUCAUAUUAAUCUUU , what is its reported pKd?
9.00

Would you mind telling me what pKd value was observed for UCUCUUUGUAUAUUGUCUCUU (ssRNA) [Ic_S1_P4E.1_K4.1_C4.1_H4.1_A4.1_F4.1_[A9G]_T4.1] ?
8.51

I would be grateful if you could share the reported pKd for Ic_S2_P4E.1_K4.1_C4.1_H4.1_A4.1_[A6C]_[T7C]_F4.1_[T8G]_[A9C]_T4.1 (ssRNA) RNA: UUUGAUUAAUAUGAUAUCGUUCUUUCUUGUAUCCGCUUCUUUCUCGAUAUCAUAUUAAUCUUU .
6.10

Find the recorded pKd belonging to UCUCUUCUUGUAUAUAUUUUAUCUCUU (ssRNA) [Ie_S1_P3E.2_K3.1_C3.2_H3.1_A3.1_F3.1_[+8TTT]_T3.2] and report it.
8.17

# pKd lookup, item Ib_S4_P4E.1_K4.1_C4.1_H4.1_[T1C]_A4.1_F4.1_[A9C]_T4.1 (ssRNA) RNA: UUUGACAACUGAUCGUUCUUUCUCGUAUAUUCUUCUUUCUCGAUCAGUUGUCUUU
5.99

What measured pKd goes with Id_ii_S2_P5E.2_K5.1_C5.2_[T-1G]_H5.1_A5.1_F5.1_T5.2_[A12C] (ssRNA) RNA: UUUGAUUAAUAUGAUAUCGUUCUUUCUCGUGUAUUAUUAUCUUCUUUCUCGAUAUCAUAUUAAUCUUU ?
8.57

Item under review: Ic_S2_P4E.1_K4.1_C4.1_H4.1_A4.1_[T5A]_[A6C]_[T7G]_F4.1_[T8G]_[A9T]_T4.1 (ssRNA) RNA: UUUGAUUAAUAUGAUAUCGUUCUUUCUUGUAACGGUUUCUUUCUCGAUAUCAUAUUAAUCUUU . Reported pKd?
5.85

Dear colleague, I am looking for the recorded pKd of the following binder: Id_ii_S2_P4E.2_K4.1_C4.2_[C-2A]_H4.1_A4.1_F4.1_T4.2_[G10A]_[T11A] (ssRNA) RNA: UUUGAUUAAUAUGAUAUCGUUCUUUCUAUUGUAUAUUAAAUUCUUUCUCGAUAUCAUAUUAAUCUUU
9.03
